Test system: 817829-284-R-J1-PDC complex spheroid viability
assay-remarks: Anticancer human tumor 817829-284-R-J1-PDC patient-derived colon adenocarcinoma cell line growth inhibition [POLQ]
conditions-used: second compound 0.1 µM; first compound 0.316 µM; stronger effect = lower value
Recorded viability, T/C for the following compounds
Express it in %; write the number only.

- compound: "C#Cc1c(F)ccc2cc(O)cc(-c3ncc4c(N5CC6CCC(C5)N6)nc(OCC56CCCN5CC(F)C6)nc4c3F)c12 (stereo not drawn) + COC1C(OC(N)=O)C(O)C(Oc2ccc3c(O)c(NC(=O)c4ccc(O)c(CC=C(C)C)c4)c(=O)oc3c2C)OC1(C)C"
  viability, T/C / %: 102

Consider the compound CCCS(=O)(=O)Nc1ccc(F)c(C(=O)c2c[nH]c3ncc(-c4ccc(Cl)cc4)cc23)c1F + Nc1ccc(C#CCN(C(=O)Cc2ncc(C(F)(F)F)cc2C(F)(F)F)c2ccc(F)cc2)nn1 and give its measured viability, T/C. 81.7

Consider the compound COc1ccc([C@@H](O)c2cc(-c3ncnc4cc(N5CCOCC5)ccc34)c(F)cc2Cl)nn1 + COC1C(OC(N)=O)C(O)C(Oc2ccc3c(O)c(NC(=O)c4ccc(O)c(CC=C(C)C)c4)c(=O)oc3c2C)OC1(C)C and give its measured viability, T/C. 68.8

* * *

Recorded pIC50 for the following compounds
Tested on: 817829-284-R-J1-PDC complex spheroid viability
assay-remarks: Anticancer human tumor 817829-284-R-J1-PDC cell line growth inhibition [POLQ];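 note: spheroids exposed to compounds for 7 days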
conditions-used: curve of first compound; second compound 3.16 µM
FYI, pIC50 means -log10 of a concentration in mol per litre.

Please review the entries below; each comes with its answer.
- compound: "CC[C@@]1(O)C(=O)OCc2c1cc1n(c2=O)Cc2cc3c(CN(C)C)c(O)ccc3nc2-1 + Nc1ccc(C#CCN(C(=O)Cc2ncc(C(F)(F)F)cc2C(F)(F)F)c2ccc(F)cc2)nn1"
  pIC50: 7.92
- compound: "O=c1[nH]cc(F)c(=O)[nH]1 + Nc1ccc(C#CCN(C(=O)Cc2ncc(C(F)(F)F)cc2C(F)(F)F)c2ccc(F)cc2)nn1"
  pIC50: 5.86
- compound: "O=c1[nH]cc(F)c(=O)[nH]1 + COC1C(OC(N)=O)C(O)C(Oc2ccc3c(O)c(NC(=O)c4ccc(O)c(CC=C(C)C)c4)c(=O)oc3c2C)OC1(C)C"
  pIC50: 5.67
- compound: "CCCS(=O)(=O)Nc1ccc(F)c(C(=O)c2c[nH]c3ncc(-c4ccc(Cl)cc4)cc23)c1F + COC1C(OC(N)=O)C(O)C(Oc2ccc3c(O)c(NC(=O)c4ccc(O)c(CC=C(C)C)c4)c(=O)oc3c2C)OC1(C)C"
  pIC50: 5.28
- compound: "CNCc1ccc(-c2[nH]c3cc(F)cc4c3c2CCNC4=O)cc1 + Nc1ccc(C#CCN(C(=O)Cc2ncc(C(F)(F)F)cc2C(F)(F)F)c2ccc(F)cc2)nn1"
  pIC50: 5.14

Consider the compound CCCS(=O)(=O)Nc1ccc(F)c(C(=O)c2c[nH]c3ncc(-c4ccc(Cl)cc4)cc23)c1F + Cc1cccc(N(C)C(=O)C2C(O)CCN2c2nc(C)cc(C(F)(F)F)c2C#N)c1 and give its measured pIC50. 5.42

Consider the compound COc1cc(C2c3cc4c(cc3C(OC3OC5COC(C)OC5C(O)C3O)C3COC(=O)C23)OCO4)cc(OC)c1O (stereo unspecified) + Cc1cccc(N(C)C(=O)C2C(O)CCN2c2nc(C)cc(C(F)(F)F)c2C#N)c1 and give its measured pIC50. 7.32

Consider the compound C=CCn1c(=O)c2cnc(Nc3ccc(N4CCN(C)CC4)cc3)nc2n1-c1cccc(C(C)(C)O)n1 + Nc1ccc(C#CCN(C(=O)Cc2ncc(C(F)(F)F)cc2C(F)(F)F)c2ccc(F)cc2)nn1 and give its measured pIC50. 6.70

Each recorded value in this set is attributed to PubChem BioAssay AID1963839.
